System: UO-31 renal
assay details: NCI tumour cell line growth inhibition, 48 h
Would you mind telling me the reported TGI of each entry?

Looking up Cc1ccccc1NC(=O)C1C(=O)N(c2ccccc2C)C(=O)/C1=N\NC(N)=S (stereo not given) , I found its TGI recorded as > 100 µM

TGI reading for C/C(=N/NC(=O)C[N+](C)(C)C)C(CN(C)C)C(=O)Nc1ccccc1 (stereo not given) : > 100 µM

For this compound ( COc1cc(/C=C/C=C2\CC/C(=C\C=C\c3ccc(O)c(OC)c3)C2=O)ccc1O ), measured TGI is > 100 µM

The value of TGI measured for the compound CCCCn1c(-c2ccc(C(=O)O/N=C(\N)c3ccc4c(c3)OCO4)cc2)nc(-c2ccccc2)c1-c1ccccc1 turned out to be 0.562 µM

What the record says about CC(C)OC(=O)OCSc1ccccc1N=Cc1cccc([N+](=O)[O-])c1 : TGI is > 10 µM

Lab note: O=C1NCN(c2ccccc2)C12CCN(CCCN1CCN(CCOC(c3ccc(F)cc3)c3ccc(F)cc3)CC1)CC2 gave TGI of 3.25 µM

Quick note, TGI for C=C1C(=O)O[C@H]2[C@H]1CC/C(COC(=O)NCC(C)c1ccc(CC(C)C)cc1)=C\CC[C@@]1(C)O[C@@H]21 (stereo not given in full) landed at 0.909 µM

Please fill in: TGI reported for O=[N+]([O-])c1ccc2c(c1)C1=NN(c3ccccc3)C(c3ccccc3Br)C1CCC2 (stereo not given) = > 50 µM

Kindly note the recorded TGI for CC1(C)CC2C(=O)c3ccccc3NC2c2ccccc21 (stereo not given) , which is > 67.2 µM

// sample COc1ccc(/C(=N\NC(=S)NN)C(c2ccc(OC)cc2)C2C(=O)Oc3ccccc32)cc1 (stereo not given) , its TGI was > 100 µM

GET /value?item= CN(C)CCNC(=O)Cn1ccc(=O)c2c([N+](=O)[O-])cccc21 &field=TGI returns > 100 µM

So for Cn1c2c(c3ccccc31)CCN(CCN1CCN(c3cccc(Cl)c3)CC1)C2=O , the logged TGI turned out to be > 100 µM

# TGI of O=C(N/N=C/c1ccc(Br)cc1)N/N=C/c1ccc(Br)cc1 = 30.5 µM

Data point: O=C(Nc1noc(-c2ccccc2)n1)c1ccccc1CNc1noc(-c2ccccc2)n1 ; TGI = > 100 µM

So, [O-]/[N+](=C\c1ccccc1OC(=S)S)c1ccc(Cl)cc1 ? Its TGI was 76.6 µM

Looking up CC(=O)O[C@H]1CCc2c(cc(N)c3c2C(=O)C[C@]2(C)C([C@H](C)CCCC(C)C)CCC32C)C1(C)C (stereo not given in full) , I found its TGI recorded as > 100 µM

Measured TGI of CCOC(=O)/C=C(\C(=O)OCC)n1ccc(=O)n(Cc2cn(COCCOC(C)=O)nn2)c1=O : 34.1 µM

// Oc1ccccc1-c1nn(CNc2ccccc2Cl)c(=S)o1 : TGI value = > 100 µM

Per the records, this compound ( CC(C(=O)O)C(C)(O)C(=O)O (stereo not given) ) has TGI equal to > 100 µM

Note to self: TGI recorded for Cc1ccc(NC(=O)c2cc(S(=O)(=O)N3C(=O)NC(=O)NS3(=O)=O)c(S)cc2Cl)cc1 was > 100 µM
